Attribution: paper PMC5540273

System: PKAC-alpha;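 further: KINOMEscan kinase panel screen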
Construct: gene PRKACA
Conditions: concentration: 1 μM,replicates: in singlicate; n = 1
MEASUREMENT_NAME: %Inh (%)
Answers are plain numbers, in %.

Below, 3 molecules whose answers are already recorded.
CNC(=O)c1ccccc1Sc1ccc2c(/C=C/c3ccccn3)n[nH]c2c1 = 0
CCn1c(-c2nonc2N)nc2c(C#CC(C)(C)O)nc(OCCN)cc21.Cl.Cl = 67
Nc1nc(Nc2ccccc2)cc(-c2ccc3c(N)n[nH]c3c2)n1 = 0

Attention now shifts to the item below.
Data point: COc1ccc(C[C@@H](CN)NC(=O)c2cc(Br)c(-c3ccnc4[nH]ccc34)s2)cc1.Cl.Cl ; %Inh = 99.7
